Assay: Pharmacokinetic study in beagles (Test Example 5), intravenous drip and intragastric administration
Assay type: in vivo
Details: beagle, dog, plasma, iv, Compound 5 0.5 mg/kg i.v. drip over 1 h, molecule detected Compound 5, mean value
Experimental: 1.1.1. Experimental Animals: Beagles, Non-Naïve, Sourced from the Animal Repository of Medicilon: 999M-004. […] The compounds of the intravenous administration group were administered via an intravenous drip over 1 h. […] Plasma samples were separated and cryopreserved at −70° C., and the levels of related compounds in vivo were determined by LC-MS/MS. […]
PARAMETER: half-life (min)
Numeric answer only, unit min assumed.

Tell me the measured half-life of Cc1ccccc1C(=O)Nc1ccc(C(=O)N2CCCC(OCOP(=O)(O)OCC[N+](C)(C)C)c3cc(Cl)ccc32)c(C)c1 (stereo not shown) , please.
42.2
